- System: C-33-A
- Test name: Antiproliferative activity against human C33A cells assessed as reduction in cell viability at 2 to 4 uM incubated up to 72 hrs by CellTiter-Glo assay
- Format: functional, cell-based
The source made the active and inactive calls. The calls are words filed in the database; no cut-off is given here.
Outcome codes: active, inactive

{"Cpd smiles": "Oc1cccc2c1[nH]c1c(C3=C[C@@]4(O)CC/C=C\\CCCCN5CC[C@@H]3[C@]3(C[C@@H]6/C=C\\CCCCN6[C@H]34)C5)nccc12", "Group label": "active"}
{"Cpd smiles": "O=CC1=C[C@@]2(O)CC/C=C\\CCCCN3CC[C@@H]1[C@]1(C[C@@H]4/C=C\\CCCCN4[C@H]12)C3", "Group label": "inactive"}
{"Cpd smiles": "O=C1CCCN2[C@@H](CC1)C[C@]13CN4CCCC/C=C\\CC[C@](O)(C=C(c5nccc6c5[nH]c5c(O)cccc56)[C@@H]1CC4)[C@H]23", "Group label": "inactive"}
{"Cpd smiles": "O[C@]12C=C([C@H]3NCCc4c3[nH]c3ccccc43)[C@@H]3CCN(CCCC/C=C\\CC1)C[C@@]31C[C@@H]3/C=C\\CCCCN3[C@H]12", "Group label": "inactive"}

====

- System: SiHa
- Test name: Antiproliferative activity against human SiHa cells assessed as reduction in cell viability after 24 hrs by CellTiter-Glo assay
- Type: functional, cell-based
pIC50: −log10 of the molar value.
Measurement type: pIC50

{"Cpd smiles": "O[C@]12C=C(c3nccc4c3[nH]c3ccccc34)[C@@H]3CCN(CCCC/C=C\\CC1)C[C@@]31C[C@@H]3/C=C\\CCCCN3[C@H]12", "Test system": "SiHa", "Endpoint result": 4.70}

====

- Test system: SiHa
- Test name: Antiproliferative activity against human SiHa cells assessed as reduction in cell viability after 72 hrs by CellTiter-Glo assay
- Type: functional, cell-based
pIC50: −log10 of the molar value.
Measurement type: pIC50

{"Cpd smiles": "O[C@]12C=C(c3nccc4c3[nH]c3ccccc34)[C@@H]3CCN(CCCC/C=C\\CC1)C[C@@]31C[C@@H]3/C=C\\CCCCN3[C@H]12", "Measurement type": "pIC50", "Endpoint result": 5.39}

====

- System: C-33-A
- Test name: Antiproliferative activity against human C33A cells assessed as reduction in cell viability after 72 hrs by CellTiter-Glo assay
- Format: functional, cell-based
pIC50: −log10 of the molar value.
Measurement type: pIC50

{"Compound": "O[C@]12C=C(c3nccc4c3[nH]c3ccccc34)[C@@H]3CCN(CCCC/C=C\\CC1)C[C@@]31C[C@@H]3/C=C\\CCCCN3[C@H]12 [MANZAMINE A]", "Endpoint result": 5.80}

====

- Test name: Toxicity in po dosed rat
- Assay type: organism-based
- Experimental context: in vivo
Measurement type: LD50

{"Cpd smiles": "O[C@]12C=C(c3nccc4c3[nH]c3ccccc34)[C@@H]3CCN(CCCC/C=C\\CC1)C[C@@]31C[C@@H]3/C=C\\CCCCN3[C@H]12", "Measurement type": "LD50", "Endpoint result": "200 to 300 mg/kg"}

====

- System: SiHa
- Test name: Antiproliferative activity against human SiHa cells assessed as reduction in cell viability at 2 to 4 uM incubated up to 72 hrs by CellTiter-Glo assay
- Assay type: functional, cell-based
Calls of active or inactive are those of the source. No cut-off for these calls is given here.
Outcome codes: true for active, false for inactive

{"Cpd smiles": "O[C@]12C=C([C@H]3NCCc4c3[nH]c3ccccc43)[C@@H]3CCN(CCCC/C=C\\CC1)C[C@@]31C[C@@H]3/C=C\\CCCCN3[C@H]12", "Test system": "SiHa", "Group label": "false"}
{"Cpd smiles": "O=CC1=C[C@@]2(O)CC/C=C\\CCCCN3CC[C@@H]1[C@]1(C[C@@H]4/C=C\\CCCCN4[C@H]12)C3", "Test system": "SiHa", "Group label": "false"}
{"Cpd smiles": "Oc1cccc2c1[nH]c1c(C3=C[C@@]4(O)CC/C=C\\CCCCN5CC[C@@H]3[C@]3(C[C@@H]6/C=C\\CCCCN6[C@H]34)C5)nccc12", "Test system": "SiHa", "Group label": "true"}
{"Cpd smiles": "O=C1CCCN2[C@@H](CC1)C[C@]13CN4CCCC/C=C\\CC[C@](O)(C=C(c5nccc6c5[nH]c5c(O)cccc56)[C@@H]1CC4)[C@H]23", "Test system": "SiHa", "Group label": "false"}
